// data source = patent US9688764B2

Biological target: mfPRLR.mmh (monomeric macaca fascicularis PRLR)
Sequence (as listed by the source): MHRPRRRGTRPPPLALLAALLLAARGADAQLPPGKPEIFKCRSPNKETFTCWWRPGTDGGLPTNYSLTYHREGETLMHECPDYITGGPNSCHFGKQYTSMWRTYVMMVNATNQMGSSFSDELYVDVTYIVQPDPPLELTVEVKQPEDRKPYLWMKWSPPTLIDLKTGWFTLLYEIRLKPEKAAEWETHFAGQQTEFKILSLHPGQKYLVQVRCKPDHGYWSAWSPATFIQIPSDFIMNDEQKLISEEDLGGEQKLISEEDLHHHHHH
Experiment: Surface plasmon resonance (Biacore T200), mAb-capture format
Format: binding
Conditions: 25° C., antibody-capture format, analyte mfPRLR.mmh
result_type: Kd (nM)
Could you give me the number in nM? Just the number is fine.

Data request: Value lookup for Kd; key = H1H6762P: anti-PRLR antibody, human IgG1 Fc; HCVR/LCVR SEQ ID NOs 2/10 (antibody, V domains shown, human IgG1 Fc) VH: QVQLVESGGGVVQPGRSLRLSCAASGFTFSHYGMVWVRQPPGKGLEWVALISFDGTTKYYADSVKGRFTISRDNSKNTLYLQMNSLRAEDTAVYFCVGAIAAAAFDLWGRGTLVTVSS VL: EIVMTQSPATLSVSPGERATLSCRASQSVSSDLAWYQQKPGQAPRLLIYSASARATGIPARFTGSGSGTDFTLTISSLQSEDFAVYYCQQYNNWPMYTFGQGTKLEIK
Data returned: 0.511
